# Species: Homo sapiens
# MEASUREMENT PROTOCOL: Selectivity ratio of Ki for recombinant cathepsin-B (unknown origin) to Ki for recombinant cathepsin-L (unknown origin)
Peptide text beside a SMILES is read from it. * marks the point of attachment. Cbz = O=C(OCc1ccccc1)*
RECORDED METRIC: Ratio Ki

COMPOUND | REPORTED VALUE
NCCCC[C@H](NC(=O)[C@H](Cc1ccc(-c2ccc(-c3ccccc3)cc2)cc1)NC(=O)OCc1ccccc1)C(N)=O | 28
NCCCC[C@H](NC(=O)[C@H](Cc1ccccc1)NC(=O)c1ccc(-c2ccccc2)cc1)C(N)=O | 9
N=C(N)NCCC[C@H](NC(=O)[C@H](Cc1ccccc1)NC(=O)OCc1ccccc1)C(N)=O (Cbz-Phe-Arg-NH2) | 12

* * *

# TESTED TARGET: Cathepsin B (Homo sapiens, UniProt P07858)
# MEASUREMENT PROTOCOL: Inhibition of recombinant cathepsin-B (unknown origin) using Z-Arg-Arg-AMC as substrate by fluorescence assay
pKi: −log10 of the molar value. Peptide text beside a SMILES is read from it. * marks the point of attachment. Cbz = O=C(OCc1ccccc1)*
RECORDED METRIC: pKi

COMPOUND | REPORTED VALUE
CC(C)C[C@H](NC(=O)OCc1ccccc1)C(=O)N[C@@H](Cc1ccccc1)C(=O)N[C@@H](CCCCN)C(N)=O (Cbz-Leu-Phe-Lys-NH2) | 2.93
CC(=O)Oc1cccc(C(=O)N[C@@H](Cc2ccccc2)C(=O)N[C@@H](CCCCN)C(N)=O)c1 | 2.99
NCCCC[C@H](NC(=O)[C@H](Cc1ccccc1)NC(=O)c1ccnc(-c2cc(C(=O)O)ccn2)c1)C(N)=O | 3.07
